Target: Phosphatidylinositol 4,5-bisphosphate 3-kinase catalytic subunit delta isoform (Homo sapiens, UniProt O00329)
Sequence (O00329 whole entry, canonical isoform): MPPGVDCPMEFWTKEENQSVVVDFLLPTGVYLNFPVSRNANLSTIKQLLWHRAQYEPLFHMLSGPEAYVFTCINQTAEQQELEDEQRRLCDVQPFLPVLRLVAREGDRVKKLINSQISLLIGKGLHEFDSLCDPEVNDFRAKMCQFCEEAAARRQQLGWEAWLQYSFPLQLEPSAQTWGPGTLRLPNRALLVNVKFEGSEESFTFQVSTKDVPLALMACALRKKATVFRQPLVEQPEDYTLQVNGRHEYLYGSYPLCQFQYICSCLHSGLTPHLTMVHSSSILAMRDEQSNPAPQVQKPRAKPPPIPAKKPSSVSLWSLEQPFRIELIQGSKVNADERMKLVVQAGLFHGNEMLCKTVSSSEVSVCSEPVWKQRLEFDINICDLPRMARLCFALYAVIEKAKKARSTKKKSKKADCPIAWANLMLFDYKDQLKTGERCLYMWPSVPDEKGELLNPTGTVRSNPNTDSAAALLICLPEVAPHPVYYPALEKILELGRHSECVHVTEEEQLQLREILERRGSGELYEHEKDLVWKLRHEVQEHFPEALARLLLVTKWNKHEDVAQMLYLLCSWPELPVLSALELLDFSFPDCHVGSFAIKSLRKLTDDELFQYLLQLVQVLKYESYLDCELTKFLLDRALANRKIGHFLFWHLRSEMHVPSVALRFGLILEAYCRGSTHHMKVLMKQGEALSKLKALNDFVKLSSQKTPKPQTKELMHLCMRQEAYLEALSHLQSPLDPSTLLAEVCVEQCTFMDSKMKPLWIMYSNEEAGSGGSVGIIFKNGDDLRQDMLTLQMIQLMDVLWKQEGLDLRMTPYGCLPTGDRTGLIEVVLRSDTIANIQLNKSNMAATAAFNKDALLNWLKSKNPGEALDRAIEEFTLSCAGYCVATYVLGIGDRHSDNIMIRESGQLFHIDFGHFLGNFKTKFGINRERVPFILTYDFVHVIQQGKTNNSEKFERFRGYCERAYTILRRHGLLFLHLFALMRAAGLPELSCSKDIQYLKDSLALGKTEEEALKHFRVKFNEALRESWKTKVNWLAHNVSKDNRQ
Test: Inhibition of PI3K-delta

| molecule | quantityUnit | IC50 |
| --- | --- | --- |
| O=C(Nc1ccncc1)Nc1ccc(-c2nc(N3CCOCC3)nc(N3C4CCC3COC4)n2)cc1 [PKI-179] | nM | 77 |

###

Target: Cytochrome P450 2D6 (Homo sapiens, UniProt P10635)
Sequence (P10635 whole entry): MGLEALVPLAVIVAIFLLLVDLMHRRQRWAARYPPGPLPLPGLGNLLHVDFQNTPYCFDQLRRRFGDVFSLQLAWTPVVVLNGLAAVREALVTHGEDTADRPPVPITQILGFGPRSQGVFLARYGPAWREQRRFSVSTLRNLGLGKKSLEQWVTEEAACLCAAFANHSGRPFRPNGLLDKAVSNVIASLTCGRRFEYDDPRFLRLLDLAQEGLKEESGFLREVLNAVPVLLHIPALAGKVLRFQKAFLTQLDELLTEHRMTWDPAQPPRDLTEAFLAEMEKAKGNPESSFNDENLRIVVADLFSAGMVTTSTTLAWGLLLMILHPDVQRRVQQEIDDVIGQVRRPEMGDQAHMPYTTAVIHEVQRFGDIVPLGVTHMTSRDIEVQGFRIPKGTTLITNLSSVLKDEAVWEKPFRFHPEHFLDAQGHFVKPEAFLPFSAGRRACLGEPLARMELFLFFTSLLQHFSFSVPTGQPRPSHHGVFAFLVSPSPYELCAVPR
measurementLabel: IC50

| chemicalSmiles | dataValue |
| --- | --- |
| O=C(Nc1ccncc1)Nc1ccc(-c2nc(N3CCOCC3)nc(N3C4CCC3COC4)n2)cc1 | > 30 µM |

###

Biological target: Phosphatidylinositol 4,5-bisphosphate 3-kinase catalytic subunit alpha isoform (Homo sapiens)
Sequence (P42336 whole entry, canonical isoform): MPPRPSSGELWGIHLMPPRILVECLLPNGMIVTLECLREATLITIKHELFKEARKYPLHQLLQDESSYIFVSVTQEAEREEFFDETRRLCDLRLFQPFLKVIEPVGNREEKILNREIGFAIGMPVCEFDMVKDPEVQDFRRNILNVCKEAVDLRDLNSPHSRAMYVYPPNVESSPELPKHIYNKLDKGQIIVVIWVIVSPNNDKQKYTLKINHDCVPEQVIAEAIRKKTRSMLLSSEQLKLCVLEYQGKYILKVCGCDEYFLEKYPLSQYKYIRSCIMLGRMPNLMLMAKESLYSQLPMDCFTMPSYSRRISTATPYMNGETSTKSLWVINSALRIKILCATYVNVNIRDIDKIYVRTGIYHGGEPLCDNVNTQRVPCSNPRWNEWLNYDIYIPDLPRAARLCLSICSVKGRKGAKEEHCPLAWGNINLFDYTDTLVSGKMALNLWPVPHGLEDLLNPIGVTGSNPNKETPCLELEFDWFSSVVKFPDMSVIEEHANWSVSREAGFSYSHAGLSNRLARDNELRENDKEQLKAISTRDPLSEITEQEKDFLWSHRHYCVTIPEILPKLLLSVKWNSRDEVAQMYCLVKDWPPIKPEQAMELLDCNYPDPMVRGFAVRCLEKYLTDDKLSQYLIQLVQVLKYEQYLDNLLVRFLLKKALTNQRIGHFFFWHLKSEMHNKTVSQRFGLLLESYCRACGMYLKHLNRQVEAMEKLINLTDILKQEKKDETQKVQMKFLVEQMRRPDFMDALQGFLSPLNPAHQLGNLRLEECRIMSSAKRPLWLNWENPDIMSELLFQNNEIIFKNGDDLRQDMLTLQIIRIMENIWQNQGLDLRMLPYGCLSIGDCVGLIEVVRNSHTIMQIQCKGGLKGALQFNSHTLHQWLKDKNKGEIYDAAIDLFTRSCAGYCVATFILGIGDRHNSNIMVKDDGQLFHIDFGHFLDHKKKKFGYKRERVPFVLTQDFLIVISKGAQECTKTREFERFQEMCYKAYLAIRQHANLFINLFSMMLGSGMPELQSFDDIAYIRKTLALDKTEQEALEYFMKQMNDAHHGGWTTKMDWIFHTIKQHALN
Assay: Inhibition of PI3K-alpha
measurementLabel: IC50 (µM)

| molecule | dataValue |
| --- | --- |
| O=C(Nc1ccc(-c2nc(N3CCOCC3)nc(N3C4CCC3COC4)n2)cc1)Nc1ccc(-c2cccnc2)nc1 | 0.04 |
| CN(C)c1ccc(NC(=O)Nc2ccc(-c3nc(N4CCOCC4)nc(N4C5CCC4COC5)n3)cc2)cc1 | 0.0035 |
| COc1ccc(NC(=O)Nc2ccc(-c3nc(N4CCOCC4)nc(N4C5CCC4COC5)n3)cc2)cc1OC | 0.0135 |
| O=C(Nc1ccncc1)Nc1ccc(-c2nc(N3CCOCC3)nc(N3C4COCC3[C@@H](O)C4)n2)cc1 (some centres undefined) | 0.004 |
| O=C(Nc1ccc(-c2nc(N3CCOCC3)nc(N3C4CCC3COC4)n2)cc1)Nc1ccnc(Cl)c1 | 0.023 |
| O=C(Nc1ccc(-c2nc(N3CCOCC3)nc(N3C4CCC3COC4)n2)cc1)Nc1cncnc1 | 0.084 |
| O=C(Nc1ccccc1)Nc1ccc(-c2nc(N3CCOCC3)nc(N3C4CCC3COC4)n2)cc1 | 0.018 |
| CN(C)CCOc1ccc(NC(=O)Nc2ccc(-c3nc(N4CCOCC4)nc(N4C5CCC4COC5)n3)cc2)cc1 | 0.014 |
| O=C(Nc1ccc(-c2nc(N3CCOCC3)nc(N3C4CCC3COC4)n2)cc1)Nc1ccnnc1 | 0.028 |
